Target: T1, 4H2330-AA
T1 chain: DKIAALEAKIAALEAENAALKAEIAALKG
Experiment: two-hybrid library CCmax;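 also: natural log of median RNA to DNA barcode read ratio; higher means stronger binding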
Conditions: mean of both orientations
Measured Quantity: interaction score

These recorded examples may help you get a feel for the data.
>>> experimental_result("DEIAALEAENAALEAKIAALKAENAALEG [4H171-AA]")
-2.02
>>> experimental_result("DENAALKAENAALKAKIAALEAKIAALEG [4H1765-AA]")
-1.37

(a) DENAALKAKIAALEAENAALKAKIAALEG [4H1821-AA]
(b) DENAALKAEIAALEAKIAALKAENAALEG [4H1579-AA]
Query: Min interaction score? a | b Lab log: write the label of the selected item as the result.
Response: b
(b: -1.81, a: -0.746)
